These entries and their values trace back to PubChem BioAssay (NCI).

- Tested on: CAKI-1 renal
- assay method text: NCI tumour cell line growth inhibition, 48 h
measured metric: TGI

>  <molecule>
O=C1OC(C2=CC(=O)c3ccccc3C2=O)C(Cl)=C1Cl (stereo not drawn)

>  <measured metric>
TGI

>  <result>
> 100 µM

$$$$
>  <molecule>
CO[C@@H]1C=C[C@@]23c4cc5c(cc4C(O)N(CC2O)C3C1)OCO5 (stereo partly drawn)

>  <measured metric>
TGI

>  <result>
27.2 µM

$$$$
>  <molecule>
COc1ccc(OC)c(-c2nc3ccccc3c(=O)[nH]2)c1

>  <measured metric>
TGI

>  <result>
> 100 µM

$$$$

====

List of TGI values.
- Test system: A549 NSCLC
- assay method text: NCI tumour cell line growth inhibition, 48 h

>  <compound>
CO[C@H]1C[C@@H]2CC[C@@H](C)[C@@](O)(O2)C(=O)C(=O)N2CCCC[C@H]2C(=O)O[C@H]([C@H](C)C[C@@H]2CC[C@@H](OP(C)(C)=O)[C@H](OC)C2)CC(=O)[C@H](C)/C=C(\C)[C@@H](O)[C@@H](OC)C(=O)[C@H](C)C[C@H](C)/C=C/C=C/C=C/1C

>  <TGI>
20.7 µM

$$$$
>  <compound>
O=C(O)Cc1cccc2c1OC(c1ccccc1)C(C(=O)c1ccccc1)C2=O (stereo not drawn)

>  <TGI>
> 100 µM

$$$$
>  <compound>
CCOC(=O)N1N=NC2C3OC(C[C@@]3(C#N)OC(C)=O)[C@H]21 (stereo partly drawn)

>  <TGI>
> 100 µM

$$$$

====

- Tested on: A549 NSCLC
- assay method text: NCI tumour cell line growth inhibition, 48 h

>  <smiles notation>
CC[C@H](C)[C@H](NC(=O)Nc1ccccc1)C(=O)N(C)[C@H](C[C@@H](OC(C)=O)c1nc(C(=O)N[C@@H](Cc2ccccc2)C[C@H](C)C(=O)OC)cs1)C(C)C

>  <TGI>
> 100 µM

$$$$
>  <smiles notation>
CC(=O)Nc1ccccc1-c1cnc2ccccc2n1

>  <TGI>
> 100 µM

$$$$
>  <smiles notation>
O=C(O)C[O][Sb][O]CC(=O)O

>  <TGI>
> 100 µM

$$$$

====

Catalogue of molecules with associated TGI
- System: SNB-19 CNS
- assay method text: NCI tumour cell line growth inhibition, 48 h

>  <smiles notation>
COc1ccc(OC)c(C#Cc2ccc(OC)c(C(=O)NCCc3ccc(F)cc3)c2)c1

>  <TGI>
> 100 µM

$$$$
>  <smiles notation>
CCN(CC)CCOC(=O)CCN1CC2CCC(CC2)C1

>  <TGI>
> 100 µM

$$$$
>  <smiles notation>
NC(=S)NNC(=O)CCC(=O)Nc1ccc(Cl)cc1Cl

>  <TGI>
> 100 µM

$$$$

====

- Tested on: EKVX NSCLC
- assay method text: NCI tumour cell line growth inhibition, 48 h

>  <molecule>
CC(C)C1SCc2nc3ccccc3n21 (configuration not stated)

>  <output unit>
µM

>  <prefix operator>
>

>  <TGI>
100

$$$$
>  <molecule>
CC(=O)Nc1ccccc1-c1cnc2ccccc2n1

>  <output unit>
µM

>  <prefix operator>
>

>  <TGI>
100

$$$$
>  <molecule>
CC(=O)OC1C/C(C)=C/CCC(C)/C=C/C2(C)CCC(C(C)(C)O)C12 (configuration not stated)

>  <output unit>
µM

>  <prefix operator>
>

>  <TGI>
100

$$$$
>  <molecule>
NC1CC(=O)c2csc(Cl)c21 (configuration not stated)

>  <output unit>
µM

>  <prefix operator>
=

>  <TGI>
35.9

$$$$
>  <molecule>
CCOC(=O)c1ccc(Nc2sc(C(=O)c3cccc([N+](=O)[O-])c3)c(N)c2C#N)cc1

>  <output unit>
µM

>  <prefix operator>
>

>  <TGI>
75.8

$$$$
>  <molecule>
CC(C)[Si](OC1=C(C(=O)N(C)c2ccccc2Cl)CCCC1)(C(C)C)C(C)C

>  <output unit>
µM

>  <prefix operator>
=

>  <TGI>
28

$$$$
>  <molecule>
CC1(O)CC2(O)C=CC3=C(C(=O)c4cccc(O)c4C3=O)C2(O)C(=O)C1O (configuration not stated)

>  <output unit>
µM

>  <prefix operator>
=

>  <TGI>
5.99

$$$$

====

- System: UACC-257 melanoma
- assay method text: NCI tumour cell line growth inhibition, 48 h; in the data active = GI50 below about 0.43 µM; inactive = the rest
Classes used: active, inactive

>  <molecule>
Nc1c(C(=O)c2cccc(CCC3(O)CCCC3)c2)cnn1-c1ccc(F)cc1

>  <measured target>
UACC-257 melanoma

>  <assigned label>
inactive

$$$$
>  <molecule>
C=CC(=O)N1CCC([C@@H]2CCNc3c(C(N)=O)c(-c4ccc(Oc5ccccc5)cc4)nn32)CC1

>  <measured target>
UACC-257 melanoma

>  <assigned label>
inactive

$$$$
>  <molecule>
CN(C)C(=O)c1cc2cnc(Nc3ccc(-c4csc5c(=O)cc(N6CCNCC6)oc45)cc3)nc2n1C1CCCC1

>  <measured target>
UACC-257 melanoma

>  <assigned label>
inactive

$$$$
>  <molecule>
COc1cc2ccnc3c2c(c1OC)-c1ccc(=O)ccc1-3

>  <measured target>
UACC-257 melanoma

>  <assigned label>
inactive

$$$$
>  <molecule>
Cc1ccc2c(Nc3cccc(Cl)c3F)ncc(NC(=O)c3csc4c(N)ncnc34)c2c1

>  <measured target>
UACC-257 melanoma

>  <assigned label>
active

$$$$
>  <molecule>
O=Cc1ccc(Oc2c3ccccc3nc3occc23)cc1

>  <measured target>
UACC-257 melanoma

>  <assigned label>
inactive

$$$$
>  <molecule>
C/C1=C\C/C=C(\C)[C@H]2CC(CC/C(C)=C/CC1)[C@@](C)(CO)O2

>  <measured target>
UACC-257 melanoma

>  <assigned label>
inactive

$$$$
>  <molecule>
O=C(Nc1ccccc1)NS(=O)(=O)c1ccc(N2N=C3c4ccccc4CC3C2c2ccccn2)cc1 (centres undefined)

>  <measured target>
UACC-257 melanoma

>  <assigned label>
inactive

$$$$
>  <molecule>
COc1ccc(/C=C/C(=O)c2ccc3cc(OC)c(OC)cc3c2)cc1OC

>  <measured target>
UACC-257 melanoma

>  <assigned label>
inactive

$$$$

====

- System: SK-MEL-5 melanoma
- assay method text: NCI tumour cell line growth inhibition, 48 h
Where a SMILES comes first, the peptide text is derived from it. [ ]: non-standard residue; d: D form. NMeY = CN[C@@H](Cc1ccc(O)cc1)C(=O)O; dNMeF = CN[C@H](Cc1ccccc1)C(=O)O; Sar = CNCC(=O)O
Entries annotated with measured TGI
measured metric: TGI

>  <molecule>
CCC[CH2][Ge]([CH2]CCC)([CH2]CCC)[O]C(=O)C(OC)c1ccccc1 (centres undefined)

>  <measured target>
SK-MEL-5 melanoma

>  <result>
> 63.1 µM

$$$$
>  <molecule>
COc1cc(C)c2c(=O)c3c(oc2c1)C(=O)c1c(O)c(OC)cc(O)c1C3=O

>  <measured target>
SK-MEL-5 melanoma

>  <result>
2.33 µM

$$$$
>  <molecule>
COc1ccc(C2CC(c3ccc4ccccc4c3O)=NN2C(C)=O)cc1OC (centres undefined)

>  <measured target>
SK-MEL-5 melanoma

>  <result>
> 100 µM

$$$$
>  <molecule>
O=C1c2cc3c(cc2[C@@H]2[C@H]1c1ccc([N+](=O)[O-])cc1C(=O)N2CCCCl)OCO3

>  <measured target>
SK-MEL-5 melanoma

>  <result>
< 0.01 µM

$$$$
>  <molecule>
Nc1ccc(Nc2c3ccccc3nc3ccccc23)cc1

>  <measured target>
SK-MEL-5 melanoma

>  <result>
> 10 µM

$$$$
>  <molecule>
N#CCN1CCOCCOCCN(CC#N)CCOCCOCC1

>  <measured target>
SK-MEL-5 melanoma

>  <result>
> 100 µM

$$$$
>  <molecule>
C[C@]12CC[C@H](O)C=C1CC[C@@H]1[C@@H]2CC[C@]2(C)C(=N/O)/C(=C/c3ccncc3)C[C@@H]12

>  <measured target>
SK-MEL-5 melanoma

>  <result>
18 µM

$$$$
>  <molecule>
CCC1(C(=O)OC)CCc2c(OC)ccc(OC)c2C1=O (centres undefined)

>  <measured target>
SK-MEL-5 melanoma

>  <result>
> 100 µM

$$$$
>  <molecule>
Nc1nc(Cl)cc(NCC2(CO)CCC(O)C2)n1 (centres undefined)

>  <measured target>
SK-MEL-5 melanoma

>  <result>
> 100 µM

$$$$
>  <molecule>
CC1(Br)C(=O)NC(=O)N(C2CC(N=[N+]=[N-])C(CO)O2)C1N=[N+]=[N-] (centres undefined)

>  <measured target>
SK-MEL-5 melanoma

>  <result>
> 100 µM

$$$$
>  <molecule>
CCOC(=O)CCC(NC(=O)c1ccc(Nc2nc3ccccc3n3cccc23)cc1)C(=O)OCC (centres undefined)

>  <measured target>
SK-MEL-5 melanoma

>  <result>
> 100 µM

$$$$
>  <molecule>
Nc1c(C(=O)c2cccc(C#CCN3CCOCC3)c2)cnn1-c1ccc(F)cc1

>  <measured target>
SK-MEL-5 melanoma

>  <result>
> 25 µM

$$$$
>  <molecule>
COc1ccc(/C=C2\SC(c3ccc(OC)cc3)N(NC(=O)Cc3ccccc3)C2=O)cc1 (centres undefined)

>  <measured target>
SK-MEL-5 melanoma

>  <result>
> 100 µM

$$$$
>  <molecule>
CN(C)c1nc(=NCc2cccs2)ss1

>  <measured target>
SK-MEL-5 melanoma

>  <result>
> 10 µM

$$$$
>  <molecule>
C#C[C@@]1(O)[C@@H](CO)O[C@@H](n2ccc3c(N)ncnc32)[C@@H]1O

>  <measured target>
SK-MEL-5 melanoma

>  <result>
2.96 µM

$$$$
>  <molecule>
O=C(NC(=S)NNC(=S)NNc1ccccc1)c1ccccc1

>  <measured target>
SK-MEL-5 melanoma

>  <result>
> 100 µM

$$$$
>  <molecule>
COc1cc2ccnc3c2c(c1OC)-c1ccc(=O)ccc1-3

>  <measured target>
SK-MEL-5 melanoma

>  <result>
47.9 µM

$$$$
>  <molecule>
COc1c(NC(=O)CC(C)=O)[c]([Hg][O]C(C)=O)c(OC)c(Cl)[c]1[Hg][O]C(C)=O

>  <measured target>
SK-MEL-5 melanoma

>  <result>
25 µM

$$$$
>  <molecule>
O=C(/C=C\c1ccccc1)Oc1ccc(/C=C2\CCCCC2=O)cc1

>  <measured target>
SK-MEL-5 melanoma

>  <result>
> 100 µM

$$$$
>  <molecule>
Cc1ccc(N=Nc2c(N)nn(-c3ccccc3)c2N)cc1

>  <measured target>
SK-MEL-5 melanoma

>  <result>
> 100 µM

$$$$
>  <molecule>
COc1cc(Cn2ccc3c2-c2oncc2CC3)cc(OC)c1

>  <measured target>
SK-MEL-5 melanoma

>  <result>
10.4 µM

$$$$
>  <molecule>
COc1ccc2c(c1)sc1nc(-c3ccccc3)c(-c3ccc(O)c(OC)c3)n12

>  <measured target>
SK-MEL-5 melanoma

>  <result>
> 100 µM

$$$$
>  <molecule>
C[C@H]1CCCCC[C@@H]2CC(=O)CC2C(=O)CCC(=O)O1 (some centres undefined)

>  <measured target>
SK-MEL-5 melanoma

>  <result>
> 100 µM

$$$$
>  <molecule>
CN1CCCC1=NC#N

>  <measured target>
SK-MEL-5 melanoma

>  <result>
> 100 µM

$$$$
>  <molecule>
O=C(Nc1nnc(-c2c(Cl)c(Cl)c(Cl)c(Cl)c2-c2nc3cc(C(=O)c4ccccc4)ccc3[nH]2)o1)c1ccccc1

>  <measured target>
SK-MEL-5 melanoma

>  <result>
18.5 µM

$$$$
>  <molecule>
COc1c(C)c(C/C=C(\C)CCCCO)c(OC)c(OC)c1OC

>  <measured target>
SK-MEL-5 melanoma

>  <result>
> 100 µM

$$$$
>  <molecule>
COc1ccc(CC2c3cc(OC)c(OC)c(OC)c3CC[N+]2(C)C)cc1Oc1ccc(CC2c3cc4c(c(OC)c3CCN2C)OCO4)cc1 (centres undefined)

>  <measured target>
SK-MEL-5 melanoma

>  <result>
> 100 µM

$$$$
>  <molecule>
CC[C@H](C)[C@@H]1NC(=O)[C@H](Cc2ccc(O)cc2)N(C)C(=O)[C@H](Cc2ccccc2)NC(=O)CN(C)C(=O)[C@@H]2CCCN2C(=O)[C@@H](Cc2ccccc2)N(C)C(=O)[C@H](CC(C)C)NC1=O (cyclo(F[NMeY]IL[dNMeF]P[Sar]))

>  <measured target>
SK-MEL-5 melanoma

>  <result>
1.85 µM

$$$$
>  <molecule>
COc1cc(O)c2c(c1)C(=O)c1cc(C)cc(O)c1C2=O

>  <measured target>
SK-MEL-5 melanoma

>  <result>
> 100 µM

$$$$
>  <molecule>
CC(=O)OC1CCC2(C)C(CCC3C4CC=C(C(C)=O)C4(C)OC(=O)CC32)C1 (centres undefined)

>  <measured target>
SK-MEL-5 melanoma

>  <result>
4.95 µM

$$$$
>  <molecule>
COc1cc(S(=O)(=O)Nc2nc(-c3ccc(N)cc3)cs2)ccc1Cl

>  <measured target>
SK-MEL-5 melanoma

>  <result>
> 100 µM

$$$$
>  <molecule>
C/C1=C\C/C=C(\C)[C@H]2CC(CC/C(C)=C/CC1)[C@@](C)(CO)O2

>  <measured target>
SK-MEL-5 melanoma

>  <result>
> 100 µM

$$$$
>  <molecule>
O=C(NCCNCCNCCNC(=O)c1cc(-c2ccccc2)nc2ccccc12)c1cc(-c2ccccc2)nc2ccccc12

>  <measured target>
SK-MEL-5 melanoma

>  <result>
2.88 µM

$$$$
>  <molecule>
CC1(C)N=C(N)N=C(N)N1c1cccc(CCCCc2ccccc2)c1

>  <measured target>
SK-MEL-5 melanoma

>  <result>
1.36 µM

$$$$
